- test.method.notes: Inhibition of RyR1 harboring R2163C mutant (unknown origin) stably expressed in HEK293 cells coexpressing R-CEPIA1er assessed as suppression in Ca2+ leakage from ER prestimulated with doxycycline for 24 to 28 hrs followed by compound addition at 100 secs and measured every 10 secs for 300 secs by time lapse fluorimetry based Michelis-Menten analysis
- Assay type: cell-based, Homo sapiens
- experimental.setup: Homo sapiens, HEK293; read-out: EC50
Label key: Met means EC50 under 0.8 µM; Not met means EC50 of 0.8 µM or more.

Solved cases (4 shown):
> print(dat)
                    structure.smiles.string    group
1    CCCCCCCCn1cc(C(=O)O)c(=O)c2cccc(OC)c21  Not met
2  CCCCCCCCn1cc(C(=O)O)c(=O)c2ccc(C(F)(F)F)cc21  Not met
3            CCCCn1cc(C(=O)O)c(=O)c2ccccc21  Not met
4      CCCCCCCCCCn1cc(C(=O)O)c(=O)c2ccccc21  Not met

Query :: State whether 0.8 µM exceeds EC50 recorded for CCn1cc(C(=O)O)c(=O)c2ccccc21 .
Result :: Not met

Query :: Answer whether the compound CCCCCCCCCn1cc(C(=O)O)c(=O)c2ccccc21 has EC50 strictly less than 0.8 µM
Result :: Met

Query :: Quick check: does CCCCCCCCn1cc(C(=O)O)c(=O)c2ccccc21 have EC50 under 0.8 µM?
Result :: Met

Query :: Bench note: check whether CCCCCCCCn1cc(C(=O)O)c(=O)c2ccc(C)cc21 shows EC50 below 0.8 µM
Result :: Met

Query :: Hello, I'm reviewing records and need to know if EC50 of CCCCCCCCn1cc(C(=O)O)c(=O)c2cc(OC)ccc21 is below 0.8 µM. Could you check?
Result :: Not met

Query :: Determine whether this compound shows EC50 lower than 0.8 µM (ties excluded): Cn1cc(C(=O)O)c(=O)c2ccccc21
Result :: Not met

Query :: Please let me know if CCCn1cc(C(=O)O)c(=O)c2cc(OC)ccc21 shows EC50 below 0.8 µM.
Result :: Not met
